All figures here come from a collection of fitness landscapes (doi:10.1016/j.celrep.2020.107928).

B1: Caulobacter ParB omega fusion; a variant is named by its letters at X, in order, B8GW30 (parent)
chain: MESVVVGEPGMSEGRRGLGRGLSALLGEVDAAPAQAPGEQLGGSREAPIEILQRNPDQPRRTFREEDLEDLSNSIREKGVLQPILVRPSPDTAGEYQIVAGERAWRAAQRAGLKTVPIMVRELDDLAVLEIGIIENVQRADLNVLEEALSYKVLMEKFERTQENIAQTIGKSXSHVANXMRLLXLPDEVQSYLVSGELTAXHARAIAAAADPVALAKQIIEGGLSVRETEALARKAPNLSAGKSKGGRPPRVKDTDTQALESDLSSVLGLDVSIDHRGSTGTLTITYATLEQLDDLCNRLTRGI

variants of: B1; assay: one-hybrid fitness for binding NBS DNA (the Noc-binding site; scaled: cognate 1, non-cognate 0); higher = stronger binding; conditions: with NBS DNA site
In all, about 81,000 sequences were measured (“one-hybrid fitness for binding NBS DNA”: median about -0.1, highest 2% from about 0.36 on). For the sample, the highest values were picked, then their nearest neighbours and some sequences at random.
Record form. Attribute: one-hybrid fitness for binding NBS DNA. Fill in for each entry.

- mutant: "RVQT"
  one-hybrid fitness for binding NBS DNA: 0.438
- mutant: "RCDH"
  one-hybrid fitness for binding NBS DNA: "≤ 0.2"
- mutant: "HFKG"
  one-hybrid fitness for binding NBS DNA: "≤ 0.2"
- mutant: "RCNN"
  one-hybrid fitness for binding NBS DNA: "≤ 0.2"
- mutant: "RYVR"
  one-hybrid fitness for binding NBS DNA: 0.269
- mutant: "RYKG"
  one-hybrid fitness for binding NBS DNA: "≤ 0.2"
- mutant: "VKPT"
  one-hybrid fitness for binding NBS DNA: "≤ 0.2"
- mutant: "PCCV"
  one-hybrid fitness for binding NBS DNA: "≤ 0.2"

Would you mind listing one-hybrid fitness for binding NBS DNA for each of the following variants?
1. RVYT
2. RVQD
3. RRNN
4. ACPI
5. RRND
6. RYSR
7. RRNH

[0.357, "≤ 0.2", 0.493, "≤ 0.2", "≤ 0.2", 0.452, 0.63]

// for each variant in input: emit one-hybrid fitness for binding NBS DNA
1. RYHP
2. VVCT
3. RYSP
4. RYNH

1: ≤ 0.2; 2: ≤ 0.2; 3: ≤ 0.2; 4: 0.209

Consider the following items and state reported one-hybrid fitness for binding NBS DNA for each.
1. QASC
2. RRDN
3. RRNP

["≤ 0.2", "≤ 0.2", "≤ 0.2"]
